Origin of measurements: ChEMBL document CHEMBL1157539

System: Plasmodium falciparum
experimental.protocol: GSK_TCMDC: Inhibition of Plasmodium falciparum Dd2 in whole red blood cells, using parasite LDH activity as an index of growth. Test compounds present at 2uM
Assay type: functional
Below: a set of entries, each annotated with reported Inhibition.

[
  {
    "molecule": "CCn1c(SC)nnc1C1CCCN(CC(=O)Nc2nc3ccc(OC)cc3s2)C1 (centres undefined)",
    "unit.abbreviation": "%",
    "Inhibition": 81
  },
  {
    "molecule": "Cc1nc(-c2ccc(C#N)cc2)sc1C(=O)NCCCCN1CCC(c2ccc3c(c2OCCO)CCCC3)CC1.Cl",
    "unit.abbreviation": "%",
    "Inhibition": 10
  },
  {
    "molecule": "COc1ccc(C2=[N+]([O-])c3ccccc3C2=O)cc1",
    "unit.abbreviation": "%",
    "Inhibition": 61
  },
  {
    "molecule": "COc1ccc(NC(=O)/C=C/c2ccccc2Cl)cc1OCCN1CCN(c2ccncc2)CC1",
    "unit.abbreviation": "%",
    "Inhibition": 52
  },
  {
    "molecule": "O=C(NCCCCCN1CCC(c2c[nH]c3ccccc23)CC1)Nc1ccc(Br)cc1",
    "unit.abbreviation": "%",
    "Inhibition": 0
  },
  {
    "molecule": "N#Cc1ccc(N/C(=N\\c2ccccc2Br)N(C2CCCCC2)C2CCCCC2)c(O)c1",
    "unit.abbreviation": "%",
    "Inhibition": 96
  },
  {
    "molecule": "CC1(C)[C@H]2CC[C@@H](CNc3nc(NCCc4c[nH]cn4)nc(Nc4ccc5c(c4)OCO5)n3)[C@@H]1C2",
    "unit.abbreviation": "%",
    "Inhibition": 88
  },
  {
    "molecule": "CC(O)c1cccc(-c2ccc(Nc3ccnc4cc(-c5nccs5)ccc34)cc2)c1.Cl (centres undefined)",
    "unit.abbreviation": "%",
    "Inhibition": 69
  },
  {
    "molecule": "Cc1cc(N[C@@H](Cc2ccccc2)C(=O)NCCOc2ccccc2)nc(NCCc2ccccn2)n1.O=C(O)C(F)(F)F",
    "unit.abbreviation": "%",
    "Inhibition": 42
  },
  {
    "molecule": "Cc1ccc2[nH]c(-c3cc(-c4cccc(C#N)c4)cnc3N)nc2c1.O=C(O)C(F)(F)F",
    "unit.abbreviation": "%",
    "Inhibition": 99
  },
  {
    "molecule": "Cl.O=C(NCCCCN1CCC(c2ccc3ccccc3c2O)CC1)c1ccc(-c2ccc(Cl)cc2)cc1",
    "unit.abbreviation": "%",
    "Inhibition": 99
  },
  {
    "molecule": "CCc1ccc(NC(=O)c2ccc(CN3CCCN(Cc4ccc(C)s4)CC3)cc2)cc1.O=C(O)C(F)(F)F",
    "unit.abbreviation": "%",
    "Inhibition": 0
  },
  {
    "molecule": "O=C1C(c2ccccc2)=C(Nc2ccc([N+](=O)[O-])cc2)c2ccccc21",
    "unit.abbreviation": "%",
    "Inhibition": 73
  },
  {
    "molecule": "O=C(NC1CCN(c2ccnc3cc(Cl)ccc23)C1)c1ccc(F)cc1F.O=C(O)C(F)(F)F (centres undefined)",
    "unit.abbreviation": "%",
    "Inhibition": 100
  },
  {
    "molecule": "CC(C)(C)CNc1noc(-c2sccc2Br)n1",
    "unit.abbreviation": "%",
    "Inhibition": 71
  },
  {
    "molecule": "CCCC(C)Nc1nc(C)cc(N[C@@H](Cc2ccccc2)C(=O)NCc2ccc(C)cc2)n1.O=C(O)C(F)(F)F (some centres undefined)",
    "unit.abbreviation": "%",
    "Inhibition": 93
  },
  {
    "molecule": "CCc1c(CCNCCc2cccc(CCNCCc3ccc(OC)c(OC)c3CC)c2)ccc(OC)c1OC.Cl",
    "unit.abbreviation": "%",
    "Inhibition": 67
  },
  {
    "molecule": "CC(C)(CNCc1ccc(C(F)(F)F)cc1)c1nc(-c2ccc(Cl)c(O)c2)c(-c2ccncc2)[nH]1.Cl",
    "unit.abbreviation": "%",
    "Inhibition": 98
  },
  {
    "molecule": "CCN(CC)CC(O)c1cc(-c2ccc(C)cc2)nc2c(C)cc(C)cc12.Cl (centres undefined)",
    "unit.abbreviation": "%",
    "Inhibition": 99
  }
]
